- tgt: BTK (Homo sapiens)
- Sequence (Q06187 402-655 limits assumed): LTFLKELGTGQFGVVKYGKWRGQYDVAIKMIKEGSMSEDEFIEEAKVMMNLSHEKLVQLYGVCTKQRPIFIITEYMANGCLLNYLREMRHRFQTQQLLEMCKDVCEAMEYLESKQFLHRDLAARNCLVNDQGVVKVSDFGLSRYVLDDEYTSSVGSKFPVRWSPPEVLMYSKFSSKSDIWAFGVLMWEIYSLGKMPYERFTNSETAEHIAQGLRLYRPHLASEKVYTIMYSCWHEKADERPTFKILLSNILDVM
- protocol summary: biochemical
- condition context: read-out: BTK inhibition (%), 0.75 uM BTK, […] probe 3l, 15 min preincubation
assay metric: inhibition at 10 µM (%)
One number for each entry, in %.

Guide cases for inhibition at 10 µM, answers given:
compound=O=C(CCCCCN1C(=O)c2cccc3cccc(c23)C1=O)NO tgt="BTK (Homo sapiens)" assay_metric="inhibition at 10 µM" obs_value=7.7
compound=OCCOc1ccc(/C(=C(/CCCl)c2ccccc2)c2ccccc2)cc1 tgt="BTK (Homo sapiens)" assay_metric="inhibition at 10 µM" obs_value=73.9
compound=COC(=O)CC[C@H](NC(=O)[C@H](CC(=O)OC)NC(=O)OCc1ccccc1)C(=O)N[C@H](C(=O)N[C@@H](CC(=O)OC)C(=O)CF)C(C)C tgt="BTK (Homo sapiens)" assay_metric="inhibition at 10 µM" obs_value=15.4
compound="OCc1cc(C(O)CNCCCCCCOCCCCc2ccccc2)ccc1O (centres unmarked)" tgt="BTK (Homo sapiens)" assay_metric="inhibition at 10 µM" obs_value=-12.4

The record that follows has no inhibition at 10 µM shown yet.
Exercise: inhibition at 10 µM lookup needed for COc1cc(O)c(CC=C(C)C)c2c1C(=O)CC(c1ccc(O)cc1)O2 (centres unmarked) , thanks.
Solution: 8.5

This collection of values is drawn from paper PMC8041284.
